Target: G-protein coupled receptor 151 (Homo sapiens)
Test: activators of human GPR151, primary screen, cell-based, PathHunter beta-arrestin, luminescence (AID 1508602);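 also: 0% = median of compound wells and 100% = cells with positive control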
Conditions: PathHunter beta-arrestin GPR151 cells, at 11.2 µM
Among all 650,000 compounds or so, about 6,800 (1%) were called active. Rule as the data show it: active = activation above about 4.9%; inactive = the rest. This excerpt belongs to a sample that is enriched for actives.
Possible outcomes: label 1 (active), label 0 (inactive)

MOLECULE	MEASURED_ON	GROUP_LABEL
CCOC(=O)c1cccc(NC(=O)/C=C/c2ccc(Cl)cc2)c1	G-protein coupled receptor 151 (Homo sapiens)	label 0
CCOC(=O)c1cccc(Nc2c(-c3ccccc3)c(=O)c2=O)c1	G-protein coupled receptor 151 (Homo sapiens)	label 0
COc1cc(/C=C/C(=O)O)ccc1OCc1ccccc1F	G-protein coupled receptor 151 (Homo sapiens)	label 0
Cc1ccc(N2C(=O)NC(NC(=O)c3cccs3)(C(F)(F)F)C2=O)cc1 (stereo not drawn)	G-protein coupled receptor 151 (Homo sapiens)	label 0
OC(COc1ccccc1F)CN1CCOCC1 (stereo not drawn)	G-protein coupled receptor 151 (Homo sapiens)	label 0
N#Cc1c(-c2ccc(F)cc2)cc(-c2ccccc2)nc1SCCOc1ccccc1	G-protein coupled receptor 151 (Homo sapiens)	label 0
CC(=O)c1ccc(C(=O)NCC2Cc3cc(Cl)cc(-c4ccncc4)c3O2)s1 (stereo not drawn)	G-protein coupled receptor 151 (Homo sapiens)	label 0
Cc1cnc(C(=O)N2CCc3ccc(NC(=O)Cc4ccccc4F)cc3C2)cn1	G-protein coupled receptor 151 (Homo sapiens)	label 0
O=C(Nc1ccccc1[N+](=O)[O-])c1ccc2ccccc2n1	G-protein coupled receptor 151 (Homo sapiens)	label 0
CC1CCCC(NC(=O)CSc2cc(=O)n(C)c3ccc(Cl)cc23)C1C (stereo not drawn)	G-protein coupled receptor 151 (Homo sapiens)	label 0
Cc1ccc(NC(=O)CCn2c(=O)oc3ccccc32)cc1Cl	G-protein coupled receptor 151 (Homo sapiens)	label 1
COc1ccc(OC)c(C2=NOC(C(=O)Nc3cccc(O)c3)C2)c1 (stereo not drawn)	G-protein coupled receptor 151 (Homo sapiens)	label 0
CCOC(=O)c1cccc(NC(=O)/C=C/c2ccccc2)c1	G-protein coupled receptor 151 (Homo sapiens)	label 1
COc1cc(NC(=O)C2CC(c3ccccc3O)=NO2)c(OC)cc1Cl (stereo not drawn)	G-protein coupled receptor 151 (Homo sapiens)	label 1
Cc1ccc(C(=O)Nc2ccc(O)c(-c3nc4ccccc4o3)c2)cc1	G-protein coupled receptor 151 (Homo sapiens)	label 0
CCOC(=O)/C(C#N)=C\c1c(C)cc(C)c(COC)c1C	G-protein coupled receptor 151 (Homo sapiens)	label 0
CN1C(=O)c2ccc(NC(=O)CCn3c(=O)oc4ccccc43)cc2C1=O	G-protein coupled receptor 151 (Homo sapiens)	label 0
COc1ccc(NC(=O)C2CCCN2C(=O)Nc2ccccc2)cc1 (stereo not drawn)	G-protein coupled receptor 151 (Homo sapiens)	label 0
CC(C)(C)NC(=O)C1CC(c2ccccc2Cl)=NO1 (stereo not drawn)	G-protein coupled receptor 151 (Homo sapiens)	label 0
CCc1ccc2[nH]c3nc(SCC#N)nnc3c2c1	G-protein coupled receptor 151 (Homo sapiens)	label 0
Cc1ccc(C2=NN(C(=O)CCC(=O)O)C(c3ccc(C)cc3)C2)cc1 (stereo not drawn)	G-protein coupled receptor 151 (Homo sapiens)	label 0
COc1ccc(CCNc2cc(C)nc3ncnn23)cc1	G-protein coupled receptor 151 (Homo sapiens)	label 0
Cc1ccc(S(=O)(=O)Oc2ccc(/C=C3\SC(N)=NC3=O)cc2)cc1	G-protein coupled receptor 151 (Homo sapiens)	label 0

---

Molecular target: G-protein coupled receptor 151 (Homo sapiens) (UniProt Q8TDV0)
Sequence (Q8TDV0 whole entry, looked up): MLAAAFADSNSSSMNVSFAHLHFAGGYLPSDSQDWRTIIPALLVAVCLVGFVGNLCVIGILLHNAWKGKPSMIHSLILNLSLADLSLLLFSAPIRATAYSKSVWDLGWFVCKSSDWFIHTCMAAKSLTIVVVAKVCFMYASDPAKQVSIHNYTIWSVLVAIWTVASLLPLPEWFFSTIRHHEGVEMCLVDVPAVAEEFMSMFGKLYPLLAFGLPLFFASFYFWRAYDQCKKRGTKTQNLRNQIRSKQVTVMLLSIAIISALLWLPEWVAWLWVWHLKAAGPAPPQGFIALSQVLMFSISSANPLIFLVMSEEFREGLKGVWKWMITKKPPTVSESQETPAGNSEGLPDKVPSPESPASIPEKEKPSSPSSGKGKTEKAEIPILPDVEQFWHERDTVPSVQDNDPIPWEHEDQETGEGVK
Assay: activators of human GPR151, primary screen, cell-based, PathHunter beta-arrestin, luminescence (AID 1508602);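 also: 0% = median of compound wells and 100% = cells with positive control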
Settings: PathHunter beta-arrestin GPR151 cells, at 11.2 µM, hits give high values
Hit rate of the full screen: of about 650,000 compounds, about 6,800 (1%) were called active. Many of the other results were omitted from the sample, so actives are more common in it than they were.

COMPOUND	READING_UNIT	activation
CCOc1cc2c(cc1OCC)C(c1ccc(OC)c(C)c1)NCC2 (stereo not drawn)	%	0.975
NC(=O)c1c(NC(=O)CN(C(=O)c2ccco2)C2CCCC2)sc2c1CCCC2	%	3.42
Cc1nc([N+](=O)[O-])cn1CC(=O)C12CC3CC(CC(C3)C1)C2	%	0.332
COc1cc(OC)cc(C(=O)Nc2ccc3c4c(cccc24)CC3)c1	%	16.6
CCCc1cc(=O)[nH]c(SCC(=O)Nc2ccc(C(N)=O)cc2)n1	%	-0.889
Oc1ccc(Cn2cc[nH]c2=S)cc1	%	8.86
O=c1c(Cl)c(-c2ccccc2)oc2ccccc12	%	-1.04
CCCCCC(=O)OCCNC(=O)c1cc2ccccc2oc1=O	%	-0.976
CCCCSC1=C(C#N)C(c2ccc(OC)cc2)C2=C(CC(C)(C)CC2=O)N1 (stereo not drawn)	%	1.78
COc1c(Cl)ccc(Cl)c1C(=O)Nc1cc(C)cc(C)c1	%	0.289
COc1ccc(Cn2cc[nH]c(=O)c2=O)cc1	%	-0.548
CCOc1cc(C2C3=C(CCCC3=O)NC3=C2C(=O)CCC3)ccc1OCc1ccc(F)cc1	%	-0.184
COc1ccc(-c2noc(N3CCC(C(=O)NCCCOC(C)C)CC3)n2)cc1	%	2.42
Cc1ccc(C2=N/C(=C\c3cccc(Cl)c3)C(=O)O2)cc1	%	-1.7
COc1ccc(Cl)cc1NC(=O)C1c2cc(OC)c(OC)cc2C(=O)N(C)C1c1ccc(OC)c(OC)c1 (stereo not drawn)	%	4.36
CCN(CC)c1nc(Nc2ccccc2)nc(Nc2ccc(NC(C)=O)cc2)n1	%	-0.926
CCN(CC)CCNS(=O)(=O)c1ccc(Br)c(C)c1	%	0.131
CCN(CC)c1nc(Nc2ccccc2)nc(Nc2ccccc2)n1	%	6.59
COc1ccc(S(=O)(=O)n2nc(-c3cc(OC)cc(OC)c3)cc2N)cc1	%	-1.02
COc1cc(C2C3=C(CCCC3=O)NC3=C2C(=O)CCC3)cc(Cl)c1O	%	1.16
COc1ccc(-c2noc(N3CCC(C(=O)NCCCN4CCN(C)CC4)CC3)n2)cc1	%	7.49
CCN(CC)c1nc(NCc2ccccc2)nc(NCc2ccc3c(c2)OCO3)n1	%	0.801
Cc1cccc(-n2nc3c(c2NC(=O)C2CCCC2)CS(=O)(=O)C3)c1C	%	-1.12
CCCCCn1c(=S)[nH]c2cc(C(=O)NCc3ccc4c(c3)OCO4)ccc2c1=O	%	-1.93
COc1ccccc1C1C(C(N)=O)=C(C)Nc2nc(CCCO)nn21 (stereo not drawn)	%	7.86
CCN1CCN(C(=O)Cn2nc(Cc3cccnc3)c3ccccc3c2=O)CC1	%	1.14
COc1cc2ccccc2cc1C(=O)Nc1ccc2c3c(cccc13)CC2	%	1.02
CCOc1cc2c(cc1OCC)C(c1ccc3ccccc3c1)NCC2 (stereo not drawn)	%	5.53
COc1ccc(-c2noc(N3CCCC(C(=O)NCCCN4CCC(C)CC4)C3)n2)cc1 (stereo not drawn)	%	-1.28
CC1=C(C(N)=O)C(c2ccc(F)cc2)n2nc(CCCO)nc2N1 (stereo not drawn)	%	0.25
Cc1ccc(C(=O)COC(=O)c2ccc3nc(-c4ccccc4)c(-c4ccccc4)nc3c2)cc1	%	-0.519
COCCn1nnnc1C(c1cc2c(C)cc(C)cc2[nH]c1=O)N1CCCC(C)C1 (stereo not drawn)	%	0.229
COc1cccc(C(=O)Nc2ccc3oc(-c4ccccc4)nc3c2)c1	%	-0.935
COc1ccccc1C1C(C(=O)Nc2ccc(F)cc2)=C(C)Nc2nc(CCCO)nn21 (stereo not drawn)	%	-0.0995
COc1cc(NC(=O)CSc2ncccc2-c2nc3ccccc3[nH]2)cc(OC)c1	%	-2.5
COc1ccc(-c2cn3c(NC(=O)c4ccccc4)cnc3cn2)cc1	%	-2.03
Cc1cc(C)c2c(=O)[nH]c(SCC(=O)c3ccc(F)cc3)nc2n1	%	3.2
CC1=C(C(=O)Nc2ccc(Cl)cc2)C(c2ccc([N+](=O)[O-])cc2)n2nnnc2N1 (stereo not drawn)	%	0.405
Cc1ccc(Nc2cc(C)nc3nncn23)cc1	%	-0.458
COc1cccc(-c2ocnc2C(=O)Nc2ccc3nc(-c4cccnc4)oc3c2)c1	%	7.47
Cc1ccc(C(=O)NCC(=O)OCC(=O)N(C(C)C)C(C)C)cc1C	%	-0.906
COc1ccc(N2CCN(C(=O)c3ccc(Cn4c(=S)[nH]c5ccc(Br)cc5c4=O)cc3)CC2)cc1	%	-0.211
CCOc1ccc(S(=O)(=O)N2CCN(c3ncccn3)CC2)c2cccnc12	%	3.78

---

Each entry below carries its recorded activation.
Molecular target: G-protein coupled receptor 151 (Homo sapiens) (UniProt Q8TDV0)
Assay: activators of human GPR151, primary screen, cell-based, PathHunter beta-arrestin, luminescence (AID 1508602);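 also: 0% = median of compound wells and 100% = cells with positive control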
Conditions: PathHunter beta-arrestin GPR151 cells, at 11.2 µM, hits give high values
The campaign covered roughly 650,000 compounds. About 6,800 (1%) were called active. This excerpt belongs to a sample that is enriched for actives.

MOLECULE	activation
CCOC(=O)c1c(-c2ccc(OC)cc2)oc2ccc(OC(=O)c3ccccc3OC)cc12	-0.167% (inactive)
CCOC(=O)c1sc2nc(SCC(=O)N(C)Cc3ccccc3)n(Cc3ccc4c(c3)OCO4)c(=O)c2c1C	5.39% (active)
CCCOc1ccccc1C1CC(=O)C2=C(C1)Nc1ccccc1N(C(C)=O)C2c1ccc(OC)cc1 (configuration not stated)	-0.237% (inactive)
COc1cc(/C=N/N=C2/NC(=O)CS2)ccc1OC(=O)c1ccccc1C	10.4% (active)
CCOC(=O)CSc1nc2sc(C(=O)OCC)c(C)c2c(=O)n1Cc1ccccc1	2.6% (inactive)
CC(C)N(C(=O)CN(C)S(=O)(=O)c1cc(Cl)ccc1Cl)C(C)C	-0.725% (inactive)
O=C(N/N=C\c1ccc(I)o1)c1ccc(Br)cc1	1.14% (inactive)
CCOC(=O)Cc1coc(NC(=O)c2ccc(Cl)cc2)n1	5.28% (active)
COc1ccc(-c2cnn3ccc(Nc4ccc(O)cc4)nc23)c(OC)c1	-0.387% (inactive)
O=C(N/N=C/c1ccc([N+](=O)[O-])cc1)c1cccc(I)c1	-0.236% (inactive)
CCOC(=O)C(C#N)C(C#N)(C(=O)OCC)C1CCCCC1=O (configuration not stated)	2.95% (inactive)
COCCNC(=O)c1cnn2c(C)c(Cc3ccc(Cl)cc3)c(C)nc12	0.41% (inactive)
CCOC(=O)NCCCN1CCN(c2ccccc2)CC1	1.63% (inactive)
Cc1c2cnn(CC(=O)NCC(C)c3ccccc3)c(=O)c2c(C)n1Cc1ccccc1 (configuration not stated)	-0.872% (inactive)
NC(=O)c1ccnc(N2CCc3ccccc3C2)c1	0.149% (inactive)
Cc1ccc(NCC(=O)N/N=C\c2ccc(I)o2)cc1	5.65% (active)
CCOc1cccc(NC(=O)Cn2nc(-c3ccc4c(c3)OCCO4)ccc2=O)c1	8% (active)
O=C1c2ccccc2C(=O)C1(Nc1ccc(-c2ccccc2)cc1)c1ccccc1	0.902% (inactive)
CCCNc1nc(N2CCOCC2)nc2cc(OC)c(OC)cc12	-0.145% (inactive)
CCc1ccc(-c2nc(CSCC(=O)NC(C)(C)C)c(C)o2)cc1	-0.321% (inactive)
COc1cc(NC(=O)NCCN2CCN(c3ccccc3)CC2)cc(OC)c1	0.531% (inactive)
CC(=O)COC(=O)CNC(=O)c1ccc(Cl)cc1	-1.71% (inactive)

Values from PubChem BioAssay AID1508602
